Value source: paper PMC6219668

# Test system: panel of nearly 500 cancer cell lines
# assay.comment: Cancer Cell Line Encyclopedia profiling, 3-day CellTiter-Glo
# Format: cell-based
# assay.setup: Homo sapiens, AU565
pIC50: −log10 of the molar value.
property.label: pIC50

[[record]]
substance_smiles = "CN(C)C(=O)c1cc2cnc(Nc3ccc(N4CCNCC4)cn3)nc2n1C1CCCC1"
reported_result = "< 5.10"


---

# Tested on: panel of nearly 500 cancer cell lines
# assay.comment: Cancer Cell Line Encyclopedia profiling, 3-day CellTiter-Glo
# Assay type: cell-based
# assay.setup: Homo sapiens, A2780
pIC50: −log10 of the molar value.
property.label: pIC50

[[record]]
substance_smiles = "CN(C)C(=O)c1cc2cnc(Nc3ccc(N4CCNCC4)cn3)nc2n1C1CCCC1"
target_or_system = "panel of nearly 500 cancer cell lines"
property_label = "pIC50"
reported_result = 5.39


---

# System: panel of nearly 500 cancer cell lines
# assay.comment: Cancer Cell Line Encyclopedia profiling, 3-day CellTiter-Glo
# Format: cell-based
# assay.setup: Homo sapiens, 769-P
pIC50: −log10 of the molar value.
property.label: pIC50

[[record]]
substance_smiles = "CN(C)C(=O)c1cc2cnc(Nc3ccc(N4CCNCC4)cn3)nc2n1C1CCCC1"
reported_result = 5.35


---

EC50 values by entry
# System: panel of nearly 500 cancer cell lines
# assay.comment: Cancer Cell Line Encyclopedia profiling, 3-day CellTiter-Glo
# Type: cell-based
# assay.setup: Homo sapiens, HCC78
property.label: EC50

[[record]]
compound = "CN(C)C(=O)c1cc2cnc(Nc3ccc(N4CCNCC4)cn3)nc2n1C1CCCC1"
reported_result = "> 8 µM"

[[record]]
compound = "CC(=O)c1c(C)c2cnc(Nc3ccc(N4CCNCC4)cn3)nc2n(C2CCCC2)c1=O [Palbociclib, reference compound]"
reported_result = "> 8 µM"


---

# Test system: panel of nearly 500 cancer cell lines
# assay.comment: Cancer Cell Line Encyclopedia profiling, 3-day CellTiter-Glo
# Format: cell-based
# assay.setup: Homo sapiens, EFM-19
Recorded EC50, one value per entry.
property.label: EC50

[[record]]
molecule = "CN(C)C(=O)c1cc2cnc(Nc3ccc(N4CCNCC4)cn3)nc2n1C1CCCC1 [Ribociclib]"
reported_result = "48.2 nM"

[[record]]
molecule = "CC(=O)c1c(C)c2cnc(Nc3ccc(N4CCNCC4)cn3)nc2n(C2CCCC2)c1=O [Palbociclib, reference compound]"
reported_result = "565 nM"


---

# Tested on: panel of nearly 500 cancer cell lines
# assay.comment: Cancer Cell Line Encyclopedia profiling, 3-day CellTiter-Glo
# Format: cell-based
# assay.setup: Homo sapiens, NCI-H1694
property.label: EC50

[[record]]
molecule = "CC(=O)c1c(C)c2cnc(Nc3ccc(N4CCNCC4)cn3)nc2n(C2CCCC2)c1=O [Palbociclib, reference compound]"
reported_result = "> 8 µM"

[[record]]
molecule = "CN(C)C(=O)c1cc2cnc(Nc3ccc(N4CCNCC4)cn3)nc2n1C1CCCC1"
reported_result = "> 8 µM"


---

# System: panel of nearly 500 cancer cell lines
# assay.comment: Cancer Cell Line Encyclopedia profiling, 3-day CellTiter-Glo
# Format: cell-based
# assay.setup: oc314 (ovary); read-out: IC50
property.label: IC50

[[record]]
compound = "CC(=O)c1c(C)c2cnc(Nc3ccc(N4CCNCC4)cn3)nc2n(C2CCCC2)c1=O [Palbociblib]"
property_label = "IC50"
reported_result = "> 8 µM"


---

# System: panel of nearly 500 cancer cell lines
# assay.comment: Cancer Cell Line Encyclopedia profiling, 3-day CellTiter-Glo
# Format: cell-based
# assay.setup: Homo sapiens, IGROV-1
property.label: IC50

[[record]]
molecule = "CN(C)C(=O)c1cc2cnc(Nc3ccc(N4CCNCC4)cn3)nc2n1C1CCCC1 [Ribociclib]"
reported_result = "> 8 µM"


---

# Tested on: panel of nearly 500 cancer cell lines
# assay.comment: Cancer Cell Line Encyclopedia profiling, 3-day CellTiter-Glo
# Type: cell-based
# assay.setup: Homo sapiens, HGC-27
pIC50: −log10 of the molar value.
property.label: pIC50

[[record]]
substance_smiles = "CN(C)C(=O)c1cc2cnc(Nc3ccc(N4CCNCC4)cn3)nc2n1C1CCCC1"
reported_result = 6.27


---

# System: A2058
# assay.comment: cells
# Type: cell-based
# assay.setup: Homo sapiens, A2058, 72 h
property.label: IC50

[[record]]
substance_smiles = "CN(C)C(=O)c1cc2cnc(Nc3ccc(N4CCNCC4)cn3)nc2n1C1CCCC1"
reported_result = "> 10 µM"


---

# Tested on: panel of nearly 500 cancer cell lines
# assay.comment: Cancer Cell Line Encyclopedia profiling, 3-day CellTiter-Glo
# Type: cell-based
# assay.setup: sw780 (urinary_tract); read-out: IC50
pIC50: −log10 of the molar value.
property.label: pIC50

[[record]]
substance_smiles = "CC(=O)c1c(C)c2cnc(Nc3ccc(N4CCNCC4)cn3)nc2n(C2CCCC2)c1=O"
reported_result = 5.78


---

# Tested on: panel of nearly 500 cancer cell lines
# assay.comment: Cancer Cell Line Encyclopedia profiling, 3-day CellTiter-Glo
# Type: cell-based
# assay.setup: Homo sapiens, KYSE-140
property.label: EC50 (nM)

[[record]]
substance_smiles = "CN(C)C(=O)c1cc2cnc(Nc3ccc(N4CCNCC4)cn3)nc2n1C1CCCC1"
target_or_system = "panel of nearly 500 cancer cell lines"
reported_result = 436


---

# Test system: panel of nearly 500 cancer cell lines
# assay.comment: Cancer Cell Line Encyclopedia profiling, 3-day CellTiter-Glo
# Format: cell-based
# assay.setup: panc0403 (pancreas); read-out: IC50
pIC50: −log10 of the molar value.
property.label: pIC50

[[record]]
compound = "CC(=O)c1c(C)c2cnc(Nc3ccc(N4CCNCC4)cn3)nc2n(C2CCCC2)c1=O [Palbociblib]"
property_label = "pIC50"
reported_result = "< 5.10"


---

# Test system: panel of nearly 500 cancer cell lines
# assay.comment: Cancer Cell Line Encyclopedia profiling, 3-day CellTiter-Glo
# Format: cell-based
# assay.setup: ncih520 (lung); read-out: IC50
pIC50: −log10 of the molar value.
property.label: pIC50

[[record]]
substance_smiles = "CC(=O)c1c(C)c2cnc(Nc3ccc(N4CCNCC4)cn3)nc2n(C2CCCC2)c1=O"
target_or_system = "panel of nearly 500 cancer cell lines"
reported_result = "< 5.10"


---

# Tested on: panel of nearly 500 cancer cell lines
# assay.comment: Cancer Cell Line Encyclopedia profiling, 3-day CellTiter-Glo
# Assay type: cell-based
# assay.setup: hs936t (skin); read-out: IC50
property.label: IC50

[[record]]
substance_smiles = "CC(=O)c1c(C)c2cnc(Nc3ccc(N4CCNCC4)cn3)nc2n(C2CCCC2)c1=O"
reported_result = "> 8 µM"


---

# Test system: panel of nearly 500 cancer cell lines
# assay.comment: Cancer Cell Line Encyclopedia profiling, 3-day CellTiter-Glo
# Format: cell-based
# assay.setup: skmel30 (skin); read-out: IC50
property.label: IC50

[[record]]
substance_smiles = "CC(=O)c1c(C)c2cnc(Nc3ccc(N4CCNCC4)cn3)nc2n(C2CCCC2)c1=O"
property_label = "IC50"
reported_result = "> 8 µM"


---

# Tested on: panel of nearly 500 cancer cell lines
# assay.comment: Cancer Cell Line Encyclopedia profiling, 3-day CellTiter-Glo
# Format: cell-based
# assay.setup: fuov1 (ovary); read-out: IC50
pIC50: −log10 of the molar value.
property.label: pIC50

[[record]]
substance_smiles = "CC(=O)c1c(C)c2cnc(Nc3ccc(N4CCNCC4)cn3)nc2n(C2CCCC2)c1=O"
reported_result = "< 5.10"


---

# Tested on: panel of nearly 500 cancer cell lines
# assay.comment: Cancer Cell Line Encyclopedia profiling, 3-day CellTiter-Glo
# Assay type: cell-based
# assay.setup: ocum1 (stomach); read-out: IC50
pIC50: −log10 of the molar value.
property.label: pIC50

[[record]]
substance_smiles = "CC(=O)c1c(C)c2cnc(Nc3ccc(N4CCNCC4)cn3)nc2n(C2CCCC2)c1=O"
reported_result = "< 5.10"


---

# Test system: panel of nearly 500 cancer cell lines
# assay.comment: Cancer Cell Line Encyclopedia profiling, 3-day CellTiter-Glo
# Assay type: cell-based
# assay.setup: jhos2 (ovary); read-out: IC50
pIC50: −log10 of the molar value.
property.label: pIC50

[[record]]
substance_smiles = "CC(=O)c1c(C)c2cnc(Nc3ccc(N4CCNCC4)cn3)nc2n(C2CCCC2)c1=O"
target_or_system = "panel of nearly 500 cancer cell lines"
reported_result = "< 5.10"


---

# System: panel of nearly 500 cancer cell lines
# assay.comment: Cancer Cell Line Encyclopedia profiling, 3-day CellTiter-Glo
# Type: cell-based
# assay.setup: Homo sapiens, L-363
Each record here notes measured EC50.
property.label: EC50 (nM)

[[record]]
compound = "CC(=O)c1c(C)c2cnc(Nc3ccc(N4CCNCC4)cn3)nc2n(C2CCCC2)c1=O [Palbociclib, reference compound]"
unit = "nM"
reported_result = 804

[[record]]
compound = "CN(C)C(=O)c1cc2cnc(Nc3ccc(N4CCNCC4)cn3)nc2n1C1CCCC1"
unit = "nM"
reported_result = 1040

